Data provenance: ChEMBL document CHEMBL1136884

Experiment: Selectivity index, ratio of IC50 for rat L6 cells to IC50 for Plasmodium falciparum K1
Assay type: toxicity, cell-based
Settings: L6 cells (versus Plasmodium falciparum K1), read-out: Ratio IC50
Item-by-item account of selectivity ratio

| molecule | selectivity ratio |
| --- | --- |
| CCN(CC)CC(=O)OC1CC2(N(C)C)CC(c3ccccc3)C1C(c1ccccc1)C2 (stereo not drawn) | 11.1 |
| CCN(CC)CC(=O)OC1CC2(N3CCCCC3)CC(c3ccccc3)C1C(c1ccccc1)C2 (stereo not drawn) | 95.7 |
| CN(C)C12CCNC(C(c3ccccc3)C1)C(c1ccccc1)C2 (stereo not drawn) | 389 |
| CN1CCN(CCC(=O)NC2CC3(N4CCCCC4)CC(c4ccccc4)C2C(c2ccccc2)C3)CC1 (racemic) | 218 |
| CN1CCN(CCC(=O)NC2CC3(N(C)C)CC(c4ccccc4)C2C(c2ccccc2)C3)CC1 (racemic) | 22.7 |
| CN1CCN(CCC(=O)N2CCC3(N4CCCCC4)CC(c4ccccc4)C2C(c2ccccc2)C3)CC1 (racemic) | 200 |
| CCN(CC)CC(=O)OC1CC2(N3CCCC3)CC(c3ccccc3)C1C(c1ccccc1)C2 (stereo not drawn) | 245 |
| CN1CCN(CC(=O)NC2CC3(N4CCCCC4)CC(c4ccccc4)C2C(c2ccccc2)C3)CC1 (racemic) | 151 |
